- RUN DESCRIPTION: chemical genetic growth profiling, strain panel (AID 1159580);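 further: tested at 20 µM; growth read once vehicle control cultures reached saturation at 30 °C; 1 = growth at the plate median or of vehicle wells; lower values mean less growth of the strain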
- CONDITION CONTEXT: S. cerevisiae deletion strains, growth OD, locus YDL192W, strain arf1
Among all 5,500 compounds or so, about 2,000 (36%) were called active. Inconclusive results (about 18%) are left out. No stated cut-off is given here; in the data, active means normalized growth mostly below about 0.91 (no sharp cut-off); inconclusive means no clear call, values can overlap the other calls; inactive means mostly above about 0.92. Some of the results follow.
API: response.call in active, inactive

Task: Dear all, I need the recorded test outcome for C=CCCCCCCCCCCCC(O)CC(O)COC(C)=O (configuration not stated) (tested in a mixture with another compound) , thank you.
Output: active

Task: Next: `CCCCCCOc1ccccc1C(N)=O`
Output: active

Task: Next: O=C1CC2OCC=C3CN4CC[C@]56c7ccccc7N1C5[C@H]2[C@H]3CC46 (some centres not stated)
Output: inactive

Task: Next: `CC(=O)OCC(COC(C)=O)OC(C)=O`
Output: inactive

Task: Next: CC1(C)C2(Cl)C(Cl)C(Cl)C(Cl)(C(Cl)Cl)C1(Cl)C2Cl (configuration not stated)
Output: inactive

Task: Next: `CC(=O)N[C@@H](CS)C(=O)O`
Output: inactive

More entries:
Task: Dear all, I need the recorded test outcome for COC(=O)C(O)c1ccccc1 (configuration not stated) , thank you.
Output: inactive

Task: Next: `CCCCOC(=O)c1ccc(N)cc1`
Output: active

Task: Next: C#CCCCCCCCCCCCC(O)CC(O)COC(C)=O (configuration not stated)
Output: inactive

Task: Next: `CCN(CC)CCOC(=O)c1ccc(N)cc1`
Output: inactive

Task: Next: `CC(=O)OCC[C@H](C)CCC=C(C)C`
Output: inactive

Task: Next: CC(=O)OCC(OC(C)=O)C(OC(C)=O)C(OC(C)=O)C(OC(C)=O)C(COC(C)=O)OC(C)=O (configuration not stated)
Output: inactive

* * *

- RUN DESCRIPTION: chemical genetic growth profiling, strain panel (AID 1159580);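 further: tested at 20 µM; growth read once vehicle control cultures reached saturation at 30 °C; 1 = growth at the plate median or of vehicle wells; lower values mean less growth of the strain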
- CONDITION CONTEXT: S. cerevisiae deletion strains, growth OD, locus YMR223W, strain ubp8, hits give low values
Out of some 5,500 compounds screened, about 2,000 (36%) were called active. Inconclusive results (about 18%) are left out. The list shows a part of the results.
OBSERVATION TYPE: normalized growth
Please give only the number in your answer, with no unit.

Example molecules with recorded normalized growth:
Task: Form field: reported normalized growth of CCCNC1CCc2nc(N)sc2C1 (centres undefined)
Output: 1.01

Task: Next: `NC[C@@H]1CC[C@@H](N)[C@@H](O[C@H]2[C@H](O)[C@@H](O[C@H]3O[C@H](CO)[C@@H](O)[C@H](N)[C@H]3O)[C@H](N)C[C@@H]2N)O1`
Output: 1.01

Task: Next: `CCCCOC(=O)c1ccc(N)cc1`
Output: 0.902

Task: Next: `O=c1cc[nH]c(=S)[nH]1`
Output: 0.992

Task: Next: `O=C(O)CN1C(=O)c2cccc3cccc(c23)C1=O`
Output: 0.977

Consider the record given below.
Task: Form field: reported normalized growth of C[N+]1(C)C2CC(OC(=O)[C@@H](CO)c3ccccc3)CC1C1OC12 (some centres undefined)
Output: 1.05

* * *

- RUN DESCRIPTION: chemical genetic growth profiling, strain panel (AID 1159580);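 further: tested at 20 µM; growth read once vehicle control cultures reached saturation at 30 °C; 1 = growth at the plate median or of vehicle wells; lower values mean less growth of the strain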
- CONDITION CONTEXT: S. cerevisiae deletion strains, growth OD, locus YFL029C, strain CAK1
About 2,000 (36%) of roughly 5,500 compounds were called active. Inconclusive results (about 18%) are left out. No stated cut-off is given here; in the data, active means normalized growth mostly below about 0.91 (no sharp cut-off); inconclusive means no clear call, values can overlap the other calls; inactive means mostly above about 0.92. Some of the results follow.
API: response.call in active, inactive

Task: Dear all, I need the recorded test outcome for `O=c1c2ccccc2[nH]c(=S)n1-c1cccc(C(F)(F)F)c1` , thank you.
Output: active

// next entry
Task: Dear all, I need the recorded test outcome for O=[N+]([O-])c1ccc2oc(C(O)c3ccc(-c4ccccc4)cc3)cc2c1 (stereo unspecified) , thank you.
Output: inactive
